biological target: DPP-IV (Homo sapiens, UniProt P27487); construct: Soluble human DPP-IV lacking the transmembrane anchor (Gly31-Pro766); Pre-Pro-alpha-mating factor leader (secretion signal) (N, cleaved yes); assay: Inhibition of DPP-IV peptidase activity, continuous fluorimetric assay (cleavage of Gly-Pro-AMC); also: 16 µM Gly-Pro-AMC
Sequence (P27487 31-766): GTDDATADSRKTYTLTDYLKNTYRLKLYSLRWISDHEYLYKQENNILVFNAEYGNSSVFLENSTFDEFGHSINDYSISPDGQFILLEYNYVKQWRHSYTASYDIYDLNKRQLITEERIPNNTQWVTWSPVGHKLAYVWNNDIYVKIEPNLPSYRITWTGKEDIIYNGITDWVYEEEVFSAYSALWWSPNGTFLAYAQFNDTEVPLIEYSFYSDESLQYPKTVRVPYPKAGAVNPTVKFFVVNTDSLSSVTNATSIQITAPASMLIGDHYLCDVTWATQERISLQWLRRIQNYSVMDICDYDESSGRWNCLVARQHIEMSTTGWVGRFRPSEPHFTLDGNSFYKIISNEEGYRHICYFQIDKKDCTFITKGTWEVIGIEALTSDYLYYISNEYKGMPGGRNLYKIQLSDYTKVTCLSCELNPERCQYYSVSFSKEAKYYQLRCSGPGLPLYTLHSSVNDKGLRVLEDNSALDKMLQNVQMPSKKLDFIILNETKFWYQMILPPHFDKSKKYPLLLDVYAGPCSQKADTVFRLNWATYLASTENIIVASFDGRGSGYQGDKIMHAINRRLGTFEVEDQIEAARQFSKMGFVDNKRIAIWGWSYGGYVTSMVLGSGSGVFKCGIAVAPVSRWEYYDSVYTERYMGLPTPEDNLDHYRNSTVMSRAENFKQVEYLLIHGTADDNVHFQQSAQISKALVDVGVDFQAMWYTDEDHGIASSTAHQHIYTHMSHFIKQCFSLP
measured metric: IC50

Consider the following illustrative entries.
>>> df
                                   compound  measured_metric        observed
0  Cn1cc(C(=O)N2CCC(C(N)Cc3cccc(Cl)c3)CC2)c(C(F)(F)F)n1 (stereo not shown)             IC50        < 100 nM
1  N[C@@H](Cc1cc(F)ccc1F)C1CCN(C(=O)c2nccc(C(F)(F)F)n2)CC1             IC50  101 to 1000 nM
2  N[C@H](Cc1cc(F)c(F)cc1F)C1CCN(C(=O)c2ccnc(C(F)(F)F)n2)CC1             IC50        < 100 nM

Tell me its IC50 on DPP-IV (Homo sapiens, UniProt P27487): CC(C)(C)OC(=O)N1CCC(C(N)Cc2cc(F)ccc2F)CC1 (stereo not shown)
< 100 nM

* * *

Field: IC50. Provide a value for each of the molecules that follow.
target: DPP-IV (Homo sapiens); construct: Soluble human DPP-IV lacking the transmembrane anchor (Gly31-Pro766); Pre-Pro-alpha-mating factor leader (secretion signal) (N, cleaved yes); assay: Inhibition of DPP-IV peptidase activity, continuous fluorimetric assay (cleavage of Gly-Pro-AMC)

Before answering, review these 2 worked examples.
>>> df
                                   molecule          target_system       observed
0  Cn1nc(C(F)(F)F)cc1C(=O)N1CCC(C(N)Cc2cccc(Cl)c2)CC1 (centres unmarked)  DPP-IV (Homo sapiens)  0.101 to 1 µM
1  N[C@H](Cc1cccc(Cl)c1)C1CCN(C(=O)c2ncccn2)CC1  DPP-IV (Homo sapiens)       < 0.1 µM

Report IC50 for each item below.
1. NC(Cc1cc(F)ccc1F)C1CCN(C(=O)c2ncccc2C(F)(F)F)CC1 (centres unmarked)
2. Cn1cncc1C(=O)N1CCC(C(N)Cc2cccc(Cl)c2)CC1 (centres unmarked)
3. N[C@H](Cc1cc(F)c(F)cc1F)C1CCN(C(=O)c2ccc(C(F)(F)F)nc2)CC1
4. NC(Cc1cc(F)ccc1F)C1CCN(C(=O)c2ccc(C(F)(F)F)nc2)CC1 (centres unmarked)
5. NC(Cc1cccc(Cl)c1)C1CCN(C(=O)c2ccnn2C(F)F)CC1 (centres unmarked)
6. N[C@@H](Cc1cc(F)c(F)cc1F)C1CCN(C(=O)c2ccnc(C(F)(F)F)n2)CC1 (single isomer, unassigned)

1: < 0.1 µM; 2: < 0.1 µM; 3: < 0.1 µM; 4: < 0.1 µM; 5: < 0.1 µM; 6: 1 to 2 µM

* * *

target: DPP-IV (Homo sapiens, UniProt P27487); construct: Soluble human DPP-IV lacking the transmembrane anchor (Gly31-Pro766); Pre-Pro-alpha-mating factor leader (secretion signal) (N, cleaved yes); experiment: Inhibition of DPP-IV peptidase activity, continuous fluorimetric assay (cleavage of Gly-Pro-AMC); also: 16 µM Gly-Pro-AMC
pIC50: −log10 of the molar value.
Assignment: determine reported pIC50 for the given compounds.

Solved entries (count: 4):
>>> print(df.to_string())
                                   compound      observed
0  NC(Cc1cccc(Cl)c1)C1CCN(C(=O)c2ccccc2)CC1 (centres unmarked)        > 7.00
1  NC(Cc1cccc(Cl)c1)C1CCN(C(=O)C2CC2)CC1 (centres unmarked)  6.00 to 7.00
2  NC(Cc1cccc(Cl)c1)C1CCN(C(=O)N2CCOCC2)CC1 (centres unmarked)        > 7.00
3  N[C@@H](Cc1cccc(Cl)c1)C1CCN(C(=O)c2ncccn2)CC1  5.70 to 6.00

Field: next compound
Give pIC50 for this entry on DPP-IV (Homo sapiens, UniProt P27487): NC(Cc1cc(F)c(F)cc1F)C1CCN(C(=O)c2ccnc(C(F)(F)F)n2)CC1 (centres unmarked)
> 7.00
